Biological target: T1, hBCMA (human BCMA) (Homo sapiens, UniProt Q02223)
T1 sequence (Q02223 1-184): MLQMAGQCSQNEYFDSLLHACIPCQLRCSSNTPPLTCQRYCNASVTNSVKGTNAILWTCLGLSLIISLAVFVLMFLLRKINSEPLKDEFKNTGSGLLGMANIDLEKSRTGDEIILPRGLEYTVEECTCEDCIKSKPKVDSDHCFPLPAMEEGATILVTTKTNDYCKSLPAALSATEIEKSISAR
Test: Kinetics and affinity of hBCMA/human IgG interactions by SPR (Bio-Rad Proteon XPR36)
Assay type: binding
Conditions: human BCMA, 37° C.
Answer each item with its documented kd Human.
One number for each entry, in s⁻¹.

Use the examples below as a reference point.
[[record]]
molecule = "A02_Rd4_0.6 nM_C06: anti-BCMA antibody (antibody, V domains shown) VH: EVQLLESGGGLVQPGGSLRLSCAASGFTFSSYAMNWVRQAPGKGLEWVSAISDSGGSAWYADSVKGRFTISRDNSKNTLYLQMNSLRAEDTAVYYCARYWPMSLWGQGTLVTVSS VL: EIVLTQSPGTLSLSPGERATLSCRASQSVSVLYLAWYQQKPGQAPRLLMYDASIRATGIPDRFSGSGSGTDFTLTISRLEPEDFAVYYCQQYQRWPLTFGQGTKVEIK"
observed_value = "7.37e-05"

[[record]]
molecule = "COMBO_Rd4_0.6 nM_C21: anti-BCMA antibody (antibody, V domains shown) VH: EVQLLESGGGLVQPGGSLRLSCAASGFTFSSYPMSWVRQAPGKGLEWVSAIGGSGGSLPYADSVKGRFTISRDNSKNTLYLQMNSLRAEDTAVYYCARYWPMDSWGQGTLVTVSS VL: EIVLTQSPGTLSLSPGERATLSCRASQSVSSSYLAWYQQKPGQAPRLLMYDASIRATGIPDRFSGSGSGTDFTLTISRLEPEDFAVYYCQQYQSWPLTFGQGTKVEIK"
observed_value = 0.000115


Now, please, on to the next molecule.
kd Human in this record for A02_Rd4_6 nM_C26: anti-BCMA antibody (antibody, V domains shown) VH: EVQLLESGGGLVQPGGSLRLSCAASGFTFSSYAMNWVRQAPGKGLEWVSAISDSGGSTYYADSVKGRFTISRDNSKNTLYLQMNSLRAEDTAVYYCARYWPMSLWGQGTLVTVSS VL: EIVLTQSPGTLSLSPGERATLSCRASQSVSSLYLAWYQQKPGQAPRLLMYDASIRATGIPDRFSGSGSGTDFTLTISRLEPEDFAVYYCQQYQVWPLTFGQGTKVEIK : 0.000139
